The measured values listed here are drawn from patent US20260327214A1.

study-target: human recombinant HDAC6 (Homo sapiens, UniProt Q9UBN7)
Construct: purchased Calbiochem 382180
assay-name: HDAC6 enzyme activity inhibition test (HDAC Fluorometric Drug Discovery Kit)
Assay type: biochemical
experimental-conditions: HDAC6 over HDAC1
Reported values of HDAC6 selectivity (fold) for individual entries
recorded-endpoint: HDAC6 selectivity (fold)

compound | result
CC1CCN(Cc2ccc(-c3nn(Cc4ccc(-c5nnc(C(F)F)o5)cn4)c(=O)o3)c(F)c2)CC1 | 595 fold
O=c1oc(-c2ccsc2)nn1Cc1ccc(-c2nnc(C(F)F)o2)cn1 | 551 fold
O=c1oc(-c2cccc(C3CCN(C4COC4)CC3)c2)nn1Cc1ccc(-c2nnc(C(F)F)o2)cn1 | 585 fold
CC(C)N1CCC(c2ccc(-c3nn(Cc4ccc(-c5nnc(C(F)F)o5)cn4)c(=O)o3)cc2)CC1 | 518 fold
Cn1ccc2cc(-c3nn(Cc4ccc(-c5nnc(C(F)F)o5)cn4)c(=O)o3)ccc21 | 1511 fold
Cn1ccc2cc(-c3nn(Cc4ccc(-c5nnc(C(F)F)o5)cn4)c(=O)o3)cnc21 | 774 fold
O=c1sc(-c2ccccc2)nn1Cc1ccc(-c2nnc(C(F)F)o2)cn1 | 359 fold
Fc1cc(-c2nnc(C(F)F)o2)cnc1Cn1nc(-c2ccccn2)oc1=S | 1548 fold
O=c1oc(-c2ccc3[nH]ccc3c2)nn1Cc1ccc(-c2nnc(C(F)F)o2)cn1 | 3497 fold
CC(C)N1CCN(c2cccc(-c3nn(Cc4ccc(-c5nnc(C(F)F)o5)cn4)c(=O)o3)c2)CC1 | 988 fold
CC(C)N1CCN(c2ccc(-c3nn(Cc4ccc(-c5nnc(C(F)F)o5)cn4)c(=O)o3)cc2)CC1 | 479 fold
CC(C)N1CCc2cc(-c3nn(Cc4ccc(-c5nnc(C(F)F)o5)cn4)c(=S)o3)sc2C1 | 893 fold
CC1CC(N2CCC(c3cccc(-c4nn(Cc5ccc(-c6nnc(C(F)F)o6)cn5)c(=O)o4)c3)CC2)C1 (stereo not shown) | 666 fold
CC(C)N1CCN(c2ccc(-c3nn(Cc4ccc(-c5nnc(C(F)F)o5)cn4)c(=O)o3)c(F)c2)CC1 | 642 fold
O=c1oc(-c2cccc(N3CCN(C4COC4)CC3)c2)nn1Cc1ccc(-c2nnc(C(F)F)o2)cn1 | 652 fold
O=C1OCC(c2cccs2)=NN1Cc1ncc(-c2nnc(C(F)F)o2)cc1F | 460 fold

* * *

study-target: human recombinant HDAC6 (Homo sapiens, UniProt Q9UBN7)
Construct: purchased Calbiochem 382180
Sequence (Q9UBN7 1-1215): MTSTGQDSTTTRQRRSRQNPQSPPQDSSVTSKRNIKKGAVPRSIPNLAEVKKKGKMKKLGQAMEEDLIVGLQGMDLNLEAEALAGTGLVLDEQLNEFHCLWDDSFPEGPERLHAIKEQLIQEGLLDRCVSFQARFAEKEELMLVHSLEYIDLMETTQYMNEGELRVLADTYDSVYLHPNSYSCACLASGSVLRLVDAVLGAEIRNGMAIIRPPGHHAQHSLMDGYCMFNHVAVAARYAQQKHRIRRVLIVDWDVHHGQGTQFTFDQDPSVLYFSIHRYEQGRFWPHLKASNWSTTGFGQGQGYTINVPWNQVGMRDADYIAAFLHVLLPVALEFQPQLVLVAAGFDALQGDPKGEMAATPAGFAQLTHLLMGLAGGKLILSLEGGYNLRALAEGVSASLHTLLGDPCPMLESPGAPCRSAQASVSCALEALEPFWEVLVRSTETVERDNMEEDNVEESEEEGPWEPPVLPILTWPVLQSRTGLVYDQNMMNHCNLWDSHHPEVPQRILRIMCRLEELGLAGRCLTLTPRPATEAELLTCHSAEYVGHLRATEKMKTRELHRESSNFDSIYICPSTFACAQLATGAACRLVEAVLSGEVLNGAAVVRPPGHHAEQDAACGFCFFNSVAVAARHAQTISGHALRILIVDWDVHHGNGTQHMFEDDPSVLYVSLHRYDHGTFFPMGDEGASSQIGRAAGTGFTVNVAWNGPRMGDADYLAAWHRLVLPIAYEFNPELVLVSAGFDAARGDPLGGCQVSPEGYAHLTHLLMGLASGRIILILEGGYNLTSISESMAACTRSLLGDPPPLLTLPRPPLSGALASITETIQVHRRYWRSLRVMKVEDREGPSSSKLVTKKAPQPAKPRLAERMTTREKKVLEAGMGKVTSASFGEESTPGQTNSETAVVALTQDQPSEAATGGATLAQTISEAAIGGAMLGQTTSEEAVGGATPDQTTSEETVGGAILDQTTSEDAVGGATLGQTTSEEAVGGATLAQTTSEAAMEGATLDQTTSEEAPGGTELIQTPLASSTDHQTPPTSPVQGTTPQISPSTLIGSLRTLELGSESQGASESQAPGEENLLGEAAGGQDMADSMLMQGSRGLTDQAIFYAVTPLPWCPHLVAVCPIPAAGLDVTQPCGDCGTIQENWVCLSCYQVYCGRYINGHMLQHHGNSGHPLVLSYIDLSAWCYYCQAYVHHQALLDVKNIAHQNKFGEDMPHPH
assay-name: HDAC6 enzyme activity inhibition test (HDAC Fluorometric Drug Discovery Kit)
Type: biochemical
experimental-conditions: HDAC6 over HDAC1
Reported values of HDAC6 selectivity (fold) for individual entries

smiles-structure | HDAC6 selectivity (fold)
CN1CCC(c2ccc(-c3nn(Cc4ccc(-c5nnc(C(F)F)o5)cn4)c(=O)o3)cc2)CC1 | 745
O=c1sc(-c2ccc(CN3CCN(C4CCC4)CC3)cc2)nn1Cc1ccc(-c2nnc(C(F)F)o2)cn1 | 890
CC(C)N1CCN(Cc2ccc(-c3nn(Cc4ccc(-c5nnc(C(F)F)o5)cn4)c(=O)o3)cc2)CC1 | 554
CC(C)N1CCN(Cc2ccc(-c3nn(Cc4ccc(-c5nnc(C(F)F)o5)cn4)c(=O)s3)cc2)CC1 | 1497

* * *

study-target: human recombinant HDAC6 (Homo sapiens, UniProt Q9UBN7)
Construct: purchased Calbiochem 382180
assay-name: HDAC6 enzyme activity inhibition test (HDAC Fluorometric Drug Discovery Kit)
Assay type: biochemical
experimental-conditions: HDAC6 over HDAC1
# cutoff 500 fold applies to HDAC6 selectivity (fold); >= gives satisfied, < gives not satisfied

compound | study-target | assigned-category
CN1CCc2cc(-c3nn(Cc4ncc(-c5nnc(C(F)F)o5)cc4F)c(=S)o3)ccc2C1 [Compound 135] | human recombinant HDAC6 (Homo sapiens, UniProt Q9UBN7) | satisfied
CC(C)N1CCN(c2cccc(-c3nn(Cc4ncc(-c5nnc(C(F)F)o5)cc4F)c(=S)o3)n2)CC1 [Compound 104] | human recombinant HDAC6 (Homo sapiens, UniProt Q9UBN7) | satisfied
O=c1sc(-c2ccc(CN3CCN(C4CS(=O)(=O)C4)CC3)cc2)nn1Cc1ccc(-c2nnc(C(F)F)o2)cn1 [Compound 68] | human recombinant HDAC6 (Homo sapiens, UniProt Q9UBN7) | not satisfied
CC1CCN(Cc2cccc(-c3nn(Cc4ccc(-c5nnc(C(F)F)o5)cn4)c(=S)o3)c2)CC1 [Compound 88] | human recombinant HDAC6 (Homo sapiens, UniProt Q9UBN7) | not satisfied
CN1CCc2ccc(-c3nn(Cc4ccc(-c5nnc(C(F)F)o5)cn4)c(=O)o3)cc2C1 [Compound 12] | human recombinant HDAC6 (Homo sapiens, UniProt Q9UBN7) | satisfied
O=c1oc(-c2ccccc2)cn1Cc1ccc(-c2nnc(C(F)F)o2)cn1 [Compound 142] | human recombinant HDAC6 (Homo sapiens, UniProt Q9UBN7) | not satisfied

* * *

study-target: human recombinant HDAC6 (Homo sapiens)
Construct: purchased Calbiochem 382180
Sequence (Q9UBN7 1-1215): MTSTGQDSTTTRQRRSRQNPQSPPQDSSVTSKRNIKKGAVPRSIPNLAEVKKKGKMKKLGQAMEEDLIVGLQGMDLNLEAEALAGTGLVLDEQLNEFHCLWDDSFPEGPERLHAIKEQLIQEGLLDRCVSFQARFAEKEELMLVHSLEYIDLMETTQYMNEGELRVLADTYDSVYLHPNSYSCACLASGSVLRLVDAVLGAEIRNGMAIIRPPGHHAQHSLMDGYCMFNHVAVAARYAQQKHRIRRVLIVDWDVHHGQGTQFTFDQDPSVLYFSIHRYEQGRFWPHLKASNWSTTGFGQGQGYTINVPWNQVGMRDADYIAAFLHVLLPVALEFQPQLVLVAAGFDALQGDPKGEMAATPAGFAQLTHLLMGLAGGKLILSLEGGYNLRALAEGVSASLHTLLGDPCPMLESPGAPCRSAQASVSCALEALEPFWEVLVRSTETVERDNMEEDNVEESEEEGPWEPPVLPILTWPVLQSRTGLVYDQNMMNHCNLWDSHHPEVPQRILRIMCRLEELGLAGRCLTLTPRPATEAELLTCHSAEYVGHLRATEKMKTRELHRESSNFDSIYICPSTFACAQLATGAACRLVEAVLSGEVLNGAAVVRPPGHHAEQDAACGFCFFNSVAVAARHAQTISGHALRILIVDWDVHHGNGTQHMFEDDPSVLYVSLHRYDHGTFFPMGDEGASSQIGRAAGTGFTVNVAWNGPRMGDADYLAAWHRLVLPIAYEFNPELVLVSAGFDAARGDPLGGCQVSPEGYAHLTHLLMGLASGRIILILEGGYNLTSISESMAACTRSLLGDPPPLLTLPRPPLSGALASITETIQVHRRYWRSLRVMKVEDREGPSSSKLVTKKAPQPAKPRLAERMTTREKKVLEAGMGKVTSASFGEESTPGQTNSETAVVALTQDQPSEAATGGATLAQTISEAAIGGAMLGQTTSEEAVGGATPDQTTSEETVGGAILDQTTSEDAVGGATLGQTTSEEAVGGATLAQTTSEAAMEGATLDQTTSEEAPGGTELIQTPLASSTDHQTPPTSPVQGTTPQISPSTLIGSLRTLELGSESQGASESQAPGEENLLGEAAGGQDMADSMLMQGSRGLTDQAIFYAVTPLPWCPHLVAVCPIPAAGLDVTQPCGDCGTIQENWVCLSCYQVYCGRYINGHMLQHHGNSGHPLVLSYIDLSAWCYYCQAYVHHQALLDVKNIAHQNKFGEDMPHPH
assay-name: HDAC6 enzyme activity inhibition test (HDAC Fluorometric Drug Discovery Kit)
Type: biochemical
experimental-conditions: HDAC6 over HDAC1
# cutoff 500 fold applies to HDAC6 selectivity (fold); >= gives y, < gives n

smiles-structure | assigned-category
O=c1oc(-c2ccc3scnc3c2)nn1Cc1ccc(-c2nnc(C(F)F)o2)cn1 | y
CNCc1ccc(-c2nn(Cc3ccc(-c4nnc(C(F)F)o4)cn3)c(=S)o2)cc1 | y
CC(C)N1CCc2ccc(-c3nn(Cc4ccc(-c5nnc(C(F)F)o5)cn4)c(=O)o3)cc2C1 | n
CC(C)N1CCC(c2ccc(-c3nn(Cc4ccc(-c5nnc(C(F)F)o5)cn4)c(=O)s3)cc2)CC1 | y
CN1CCC(c2cccc(-c3nn(Cc4ccc(-c5nnc(C(F)F)o5)cn4)c(=O)o3)c2)CC1 | y
O=C1OCC(c2ccccn2)=NN1Cc1ccc(-c2nnc(C(F)F)o2)cn1 | n
Fc1cccc(-c2nn(Cc3ncc(-c4nnc(C(F)F)o4)cc3F)c(=S)o2)c1 | n
O=c1sc(-c2ccccn2)nn1Cc1ccc(-c2nnc(C(F)F)o2)cn1 | y
